target: Melanocortin receptor 3 (Homo sapiens, UniProt P41968); format: cell membranes, Membrane; settings: hek293; also: in other assays of this panel Not Active means under 50% inhibition at 10 µM
Sequence (P41968 whole entry): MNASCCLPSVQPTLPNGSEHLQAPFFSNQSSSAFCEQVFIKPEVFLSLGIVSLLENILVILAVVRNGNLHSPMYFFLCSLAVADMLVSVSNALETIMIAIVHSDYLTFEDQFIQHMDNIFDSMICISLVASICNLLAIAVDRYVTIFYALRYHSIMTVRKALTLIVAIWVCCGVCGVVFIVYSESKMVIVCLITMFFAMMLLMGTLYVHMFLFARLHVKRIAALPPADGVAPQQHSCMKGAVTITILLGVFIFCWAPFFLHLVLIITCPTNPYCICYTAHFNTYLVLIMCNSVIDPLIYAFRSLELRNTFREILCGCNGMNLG
assay.endpoint: IC50

Examples from the recorded data:
# molecule, assay.system, IC50
rows = [
    ("C=C1[C@@H]2CCC3[C@@](CC[C@@H]4[C@H](C(=O)O)C[C@@H](O[C@@H]5O[C@H](CO)[C@@H](OS(=O)(=O)[O-])[C@H](OS(=O)(=O)[O-])[C@H]5OC(=O)CC(C)C)C[C@@]34C)(C2)[C@@H]1O.[K+].[K+] (stereo partly drawn) [ATRACTYLOSIDE]", "Melanocortin receptor 3 (Homo sapiens, UniProt P41968)", "Not Active"),
    ("O=C1CN=C(c2ccccc2)c2cc([N+](=O)[O-])ccc2N1 [NITRAZEPAM]", "Melanocortin receptor 3 (Homo sapiens, UniProt P41968)", "Not Active"),
    ("CCCC[C@@H](CC)COC(=O)c1ccccc1C(=O)OC[C@@H](CC)CCCC [BIS(2-ETHYLHEXYL)PHTHALATE]", "Melanocortin receptor 3 (Homo sapiens, UniProt P41968)", "Not Active"),
    ("CC(=O)[C@@]1(O)CC[C@H]2[C@@H]3C[C@H](C)C4=CC(=O)C=C[C@]4(C)[C@@]3(F)[C@@H](O)C[C@@]21C [FLUOROMETHOLONE]", "Melanocortin receptor 3 (Homo sapiens, UniProt P41968)", "Not Active"),
    ("Cn1cnc([N+](=O)[O-])c1Sc1ncnc2nc[nH]c12 [AZATHIOPRINE]", "Melanocortin receptor 3 (Homo sapiens, UniProt P41968)", "Not Active"),
    ("Nc1nc(=O)[nH]cc1F [FLUCYTOSINE]", "Melanocortin receptor 3 (Homo sapiens, UniProt P41968)", "Not Active"),
]

State its IC50: CNCCC=C1c2ccccc2CCc2ccccc21 [NORTRIPTYLINE]
Not Active

Look up IC50 of `CC(C)NC[C@H](O)COc1cccc2[nH]ccc12` and report it.
Not Active

====

target: Estrogen receptor beta (Homo sapiens, UniProt Q92731); conditions: sf9; also: in other assays of this panel Not Active means under 50% inhibition at 10 µM
Sequence (Q92731 whole entry): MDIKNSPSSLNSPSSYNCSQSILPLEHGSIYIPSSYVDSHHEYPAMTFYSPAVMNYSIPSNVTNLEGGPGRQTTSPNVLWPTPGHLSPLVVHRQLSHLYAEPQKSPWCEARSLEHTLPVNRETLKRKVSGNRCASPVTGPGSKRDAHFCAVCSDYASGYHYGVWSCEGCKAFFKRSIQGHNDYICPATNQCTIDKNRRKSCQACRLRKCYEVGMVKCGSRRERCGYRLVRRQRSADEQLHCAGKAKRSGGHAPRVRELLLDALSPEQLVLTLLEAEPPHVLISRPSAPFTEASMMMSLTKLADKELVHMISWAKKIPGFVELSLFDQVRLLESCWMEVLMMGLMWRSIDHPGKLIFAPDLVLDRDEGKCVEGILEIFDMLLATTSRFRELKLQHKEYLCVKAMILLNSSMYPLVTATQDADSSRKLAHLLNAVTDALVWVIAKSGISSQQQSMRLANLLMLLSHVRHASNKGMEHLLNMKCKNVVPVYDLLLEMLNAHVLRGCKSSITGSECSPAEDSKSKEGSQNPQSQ
assay.endpoint: IC50

Solved cases below.
# compound, test.value
records = [
    ("O=[N+]([O-])c1cc([As](=O)(O)O)ccc1O", "Not Active"),
    ("Cc1[nH]cnc1CN1CCc2c(c3ccccc3n2C)C1=O", "Not Active"),
    ("Clc1ccccc1C(c1ccccc1)(c1ccccc1)n1ccnc1", "Not Active"),
    ("NNC(=O)c1ccncc1", "Not Active"),
]

State IC50 (Estrogen receptor beta (Homo sapiens, UniProt Q92731)) of `Nc1nc2c(ncn2COC(CO)CO)c(=O)[nH]1` .
Not Active

Report its IC50 with Estrogen receptor beta (Homo sapiens, UniProt Q92731) as the test system: `OCc1ccccc1`
Not Active

====

Target: Cytochrome P450 2A6 (Homo sapiens); also: in other assays of this panel Not Active means under 50% inhibition at 10 µM
Sequence (P11509 whole entry): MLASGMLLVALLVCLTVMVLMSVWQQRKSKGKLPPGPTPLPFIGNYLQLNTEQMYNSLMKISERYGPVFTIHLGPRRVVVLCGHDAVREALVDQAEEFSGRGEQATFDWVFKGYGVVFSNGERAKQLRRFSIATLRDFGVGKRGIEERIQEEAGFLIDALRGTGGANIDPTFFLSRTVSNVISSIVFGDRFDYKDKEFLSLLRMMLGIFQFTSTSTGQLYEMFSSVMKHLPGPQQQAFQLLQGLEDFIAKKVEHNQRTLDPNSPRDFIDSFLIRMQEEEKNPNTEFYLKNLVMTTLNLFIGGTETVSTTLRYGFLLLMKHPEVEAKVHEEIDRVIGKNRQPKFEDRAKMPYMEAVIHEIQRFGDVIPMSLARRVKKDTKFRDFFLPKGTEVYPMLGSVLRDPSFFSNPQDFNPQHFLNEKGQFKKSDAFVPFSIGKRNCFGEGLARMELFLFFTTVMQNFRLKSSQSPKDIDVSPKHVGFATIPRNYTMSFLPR
Details: bti-tn-5b1-4
assay.endpoint: IC50

Guide cases for IC50, answers given:
# substance, IC50
data = [
    ("CARBOPLATIN", "Not Active"),
    ("GOLD SODIUM THIOMALATE", "Not Active"),
    ("IVERMECTIN", "Not Active"),
    ("CISPLATIN", "Not Active"),
]

Now look at this entry.
Give recorded IC50. `OXALIPLATIN`
Not Active

====

assay: DRUGMATRIX: Imidazoline I2, Central radioligand binding (ligand: [3H] Idazoxan); type: cell membranes, Rattus norvegicus, Wistar, Cerebral cortex, Membrane; settings: Not Active = under 50% inhibition at 10 µM
assay.endpoint: Ki

// known answers, use as guide
# compound, Ki
rows = [
    ("COc1ccc2cc(CC(=O)O)ccc2c1", "Not Active"),
    ("COCc1c(C(C)C)nc(C(C)C)c(/C=C/[C@@H](O)C[C@@H](O)CC(=O)O)c1-c1ccc(F)cc1 [CERIVASTATIN]", "Not Active"),
    ("CN(N=O)C(=O)N[C@@H](C=O)[C@@H](O)[C@H](O)[C@H](O)CO [STREPTOZOCIN]", "Not Active"),
    ("O=C1NC(=O)C(c2ccccc2)(c2ccccc2)N1 [PHENYTOIN]", "Not Active"),
    ("O=C1OC2(c3ccc(O)cc3Oc3cc(O)ccc32)c2ccccc21 [FLUORESCEIN]", "Not Active"),
    ("Cc1c(-c2ccccc2)oc2c(C(=O)OCCN3CCCCC3)cccc2c1=O [FLAVOXATE]", "Not Active"),
    ("CC(=O)O[C@]1(C(C)=O)CC[C@H]2[C@@H]3C=C(Cl)C4=CC(=O)CC[C@]4(C)[C@H]3CC[C@@]21C [CHLORMADINONE ACETATE]", "Not Active"),
]

For the compound CC1COc2c(N3CCN(C)CC3)c(F)cc3c(=O)c(C(=O)O)cn1c23 (stereo not drawn) [OFLOXACIN] , report Ki.
Not Active

====

biological target: 3-hydroxy-3-methylglutaryl-coenzyme A reductase (Homo sapiens); set-up: species or system Escherichia coli;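 also: enzyme inhibition assay of HMG-CoA reductase using radiolabeled [14C]HMG-CoA as substrate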; also: in other assays of this panel Not Active means under 50% inhibition at 10 µM
Sequence (P04035 whole entry): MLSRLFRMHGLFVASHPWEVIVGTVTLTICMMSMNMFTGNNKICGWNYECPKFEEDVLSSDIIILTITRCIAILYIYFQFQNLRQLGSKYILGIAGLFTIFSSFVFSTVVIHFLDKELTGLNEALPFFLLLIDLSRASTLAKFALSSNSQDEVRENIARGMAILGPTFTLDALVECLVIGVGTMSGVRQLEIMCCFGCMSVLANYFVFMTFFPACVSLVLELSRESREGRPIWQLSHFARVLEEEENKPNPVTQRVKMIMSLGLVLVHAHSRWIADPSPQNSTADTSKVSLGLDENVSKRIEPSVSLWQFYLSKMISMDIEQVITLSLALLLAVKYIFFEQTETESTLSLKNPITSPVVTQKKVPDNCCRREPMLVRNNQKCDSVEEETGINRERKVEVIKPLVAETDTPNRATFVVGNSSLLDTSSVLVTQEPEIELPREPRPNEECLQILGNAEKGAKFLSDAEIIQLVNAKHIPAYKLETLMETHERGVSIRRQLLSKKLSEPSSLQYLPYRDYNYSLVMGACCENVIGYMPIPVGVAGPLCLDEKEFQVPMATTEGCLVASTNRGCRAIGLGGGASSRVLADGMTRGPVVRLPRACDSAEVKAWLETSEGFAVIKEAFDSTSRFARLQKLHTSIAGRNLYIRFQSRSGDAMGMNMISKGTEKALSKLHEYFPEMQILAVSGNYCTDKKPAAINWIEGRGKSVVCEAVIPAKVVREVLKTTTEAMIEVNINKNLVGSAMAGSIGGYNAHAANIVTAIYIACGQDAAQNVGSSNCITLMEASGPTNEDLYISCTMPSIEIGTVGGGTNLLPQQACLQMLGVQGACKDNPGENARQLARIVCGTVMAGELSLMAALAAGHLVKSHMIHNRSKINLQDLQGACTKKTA
assay.endpoint: IC50

# molecule, assay.endpoint, test.value
rows = [
    ("Cc1c(-c2ccccc2)oc2c(C(=O)OCCN3CCCCC3)cccc2c1=O [FLAVOXATE]", "IC50", "Not Active"),
    ("Cc1ncc([N+](=O)[O-])n1CC(C)O (stereo not given)", "IC50", "Not Active"),
    ("OCc1ccccc1", "IC50", "Not Active"),
    ("COC(=O)c1ccc(O)cc1", "IC50", "Not Active"),
    ("CNCCC=C1c2ccccc2CCc2ccccc21", "IC50", "Not Active"),
]

Here is the next item to consider.
Look up and report measured IC50 (3-hydroxy-3-methylglutaryl-coenzyme A reductase (Homo sapiens)) for the following molecule: CCOC(=O)OC(C)OC1=C(C(=O)Nc2ccccn2)N(C)S(=O)(=O)c2ccccc21 (stereo not given)
Not Active

====

target: Alpha-2A adrenergic receptor (Homo sapiens, UniProt P08913); format: cell membranes, Sf9, Membrane; conditions: sf9; also: in other assays of this panel Not Active means under 50% inhibition at 10 µM
Sequence (P08913 whole entry): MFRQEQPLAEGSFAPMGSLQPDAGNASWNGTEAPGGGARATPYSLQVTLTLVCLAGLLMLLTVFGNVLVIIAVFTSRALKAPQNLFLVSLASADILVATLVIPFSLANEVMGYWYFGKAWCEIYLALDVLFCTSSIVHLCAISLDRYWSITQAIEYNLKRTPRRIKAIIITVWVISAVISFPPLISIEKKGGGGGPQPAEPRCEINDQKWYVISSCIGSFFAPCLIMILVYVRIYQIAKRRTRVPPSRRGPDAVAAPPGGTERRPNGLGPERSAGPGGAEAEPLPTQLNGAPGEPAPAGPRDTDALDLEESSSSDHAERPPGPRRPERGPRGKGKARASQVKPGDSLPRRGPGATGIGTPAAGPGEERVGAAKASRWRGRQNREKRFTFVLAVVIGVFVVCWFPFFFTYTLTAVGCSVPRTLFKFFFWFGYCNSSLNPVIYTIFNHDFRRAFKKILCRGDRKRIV
assay.endpoint: IC50

# compound, assay.system, IC50
data = [
    ("C=CC[C@@H]1/C=C(\\C)C[C@H](C)C[C@H](OC)[C@H]2O[C@@](O)(C(=O)C(=O)N3CCCC[C@H]3C(=O)O[C@H](/C(C)=C/[C@@H]3CC[C@@H](O)[C@H](OC)C3)[C@H](C)[C@@H](O)CC1=O)[C@H](C)C[C@@H]2OC [TACROLIMUS ANHYDROUS]", "Alpha-2A adrenergic receptor (Homo sapiens, UniProt P08913)", "Not Active"),
    ("O=C(O)c1cn(C2CC2)c2cc(N3CCNCC3)c(F)cc2c1=O", "Alpha-2A adrenergic receptor (Homo sapiens, UniProt P08913)", "Not Active"),
    ("CN1[C@@H]2CC[C@H]1C[C@@H](OC(=O)c1c[nH]c3ccccc13)C2", "Alpha-2A adrenergic receptor (Homo sapiens, UniProt P08913)", "Not Active"),
    ("Oc1cccc2cccnc12", "Alpha-2A adrenergic receptor (Homo sapiens, UniProt P08913)", "Not Active"),
]

Look up and state reported IC50 for `Brc1ccccc1`
Not Active

Retrieve IC50 measured for `COS(C)(=O)=O` and print it.
Not Active

Please list IC50 recorded for the compound NS(=O)(=O)c1cc2c(cc1Cl)NCNS2(=O)=O [HYDROCHLOROTHIAZIDE]
Not Active

Annotate the compound CC(C)(Oc1ccc(CCNC(=O)c2ccc(Cl)cc2)cc1)C(=O)O [BEZAFIBRATE] with its measured IC50.
Not Active

====

molecular target: Polyunsaturated fatty acid lipoxygenase ALOX15 (Oryctolagus cuniculus); assay: biochemical; format: tissue-based, Reticulocytes; details: reticulocytes; also: in other assays of this panel Not Active means under 50% inhibition at 10 µM;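 also: inhibition of 15-lipoxygenase enzyme activity measured with linoleic acid as the substrate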
Sequence (P12530 whole entry): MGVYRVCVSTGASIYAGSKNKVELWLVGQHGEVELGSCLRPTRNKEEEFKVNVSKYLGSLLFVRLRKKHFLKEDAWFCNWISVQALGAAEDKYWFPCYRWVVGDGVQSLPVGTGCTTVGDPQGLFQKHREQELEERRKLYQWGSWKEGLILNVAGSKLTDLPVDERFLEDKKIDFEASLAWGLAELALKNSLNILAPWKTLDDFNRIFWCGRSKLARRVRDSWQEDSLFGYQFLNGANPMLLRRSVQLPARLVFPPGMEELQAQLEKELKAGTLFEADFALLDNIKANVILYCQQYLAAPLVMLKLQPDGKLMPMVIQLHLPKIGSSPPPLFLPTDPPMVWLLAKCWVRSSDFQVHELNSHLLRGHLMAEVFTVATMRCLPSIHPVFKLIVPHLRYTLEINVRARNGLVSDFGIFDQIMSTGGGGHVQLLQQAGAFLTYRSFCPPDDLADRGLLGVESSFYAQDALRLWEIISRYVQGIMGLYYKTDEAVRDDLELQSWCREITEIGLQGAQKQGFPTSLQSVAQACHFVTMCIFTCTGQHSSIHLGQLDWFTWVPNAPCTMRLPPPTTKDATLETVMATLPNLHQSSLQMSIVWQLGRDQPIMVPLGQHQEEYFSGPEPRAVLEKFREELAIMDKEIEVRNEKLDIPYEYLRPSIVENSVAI

# molecule, IC50
records = [
    ("CC(=O)[C@@]1(O)CC[C@H]2[C@@H]3C[C@H](C)C4=CC(=O)C=C[C@]4(C)[C@@]3(F)[C@@H](O)C[C@@]21C [FLUOROMETHOLONE]", "Not Active"),
    ("COc1cccc(C2(O)CCCCC2CN(C)C)c1 (centres undefined) [TRAMADOL]", "Not Active"),
    ("N#C[C@H](O[C@@H]1O[C@H](CO[C@@H]2O[C@H](CO)[C@@H](O)[C@H](O)[C@H]2O)[C@@H](O)[C@H](O)[C@H]1O)c1ccccc1 [AMYGDALIN]", "Not Active"),
    ("Clc1ccc(C(c2ccccc2Cl)C(Cl)Cl)cc1 (centres undefined) [MITOTANE]", "Not Active"),
]
